Task for the reader: assign each of the following sequences its reported folding enthalpy.
# PROTOCOL: folding enthalpy; higher = less favourable; fluorescence melt of hairpins on a sequencing array, two-state fit
# CONDITION_PARAMETERS: sodium 0.088 M
Remember to put the unit after the number in your answer.

q: Which folding enthalpy is reported for this sequence? GACACCGAAAGGTCGTC ((((((....))).)))
a: -21.7 kcal/mol

q: I am curious: what folding enthalpy value has been reported for GATCCAGCACTGGATC ((((((....)))))) ?
a: -37.6 kcal/mol

q: For the sequence GTCGTCGGAAACGATGGC (.(.(((....))).).) , what folding enthalpy is on record?
a: -25.4 kcal/mol

q: Can you look up the measured folding enthalpy of GATGGCGGAAACGCCGTC ((.((((....)))).)) for me?
a: -21.4 kcal/mol

q: What does the data say about its folding enthalpy? Entry: GCGATGCGAAAGCAAGGC ((..(((....)))..))
a: -17.2 kcal/mol

q: May I ask what folding enthalpy has been recorded for GCTACCGAAAGGTTTAGC ((((((....)))..))) ?
a: -17.6 kcal/mol

q: Record request: folding enthalpy value, item GATTAGCGAAAGCTTATC (((.(((....))).)))
a: -20.5 kcal/mol

q: Reported folding enthalpy, sequence GCTGTCCGAAAGGAGAGC (((.(((....))).))) : ____
a: -34 kcal/mol

q: If you can, please state the reported folding enthalpy value of TTTCAGAAATGAAA (((((....))))) .
a: -5.49 kcal/mol

q: # folding enthalpy lookup, item GCTATGGGAAACCACAGC (((.(((....))).)))
a: -23.7 kcal/mol

q: Query (sequence): GGTCCCGAAAGGGGCACC ((((((....)))..))) ; field requested: folding enthalpy
a: -11.3 kcal/mol

q: Requested field: folding enthalpy. Item: CGGACGGAAACGTCCCCG ((((((....)))..)))
a: -7.24 kcal/mol
